Cited source for all entries: patent US11981935B2

TARGET_DESC: 7β-HSDH from Collinsella aerofaciens DSM 3979 (Collinsella aerofaciens, UniProt A4ECA9)
Sequence (A4ECA9 whole entry): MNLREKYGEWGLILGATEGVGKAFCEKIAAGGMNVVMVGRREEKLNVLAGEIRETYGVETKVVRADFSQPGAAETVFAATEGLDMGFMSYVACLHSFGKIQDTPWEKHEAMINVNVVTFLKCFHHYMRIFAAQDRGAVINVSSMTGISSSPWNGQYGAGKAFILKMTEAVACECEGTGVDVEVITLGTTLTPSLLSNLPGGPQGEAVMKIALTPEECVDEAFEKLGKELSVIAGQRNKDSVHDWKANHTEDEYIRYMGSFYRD
Format: biochemical

MOLECULE: NC(=O)c1ccc[n+]([C@@H]2O[C@H](COP(=O)([O-])OP(=O)(O)OC[C@H]3O[C@@H](n4cnc5c(N)ncnc54)[C@H](OP(=O)(O)O)[C@@H]3O)[C@@H](O)[C@H]2O)c1
kcat: 944.95 1 μmol/(μmol × min)
--
MOLECULE: NC(=O)C1=CN([C@@H]2O[C@H](COP(=O)(O)OP(=O)(O)OC[C@H]3O[C@@H](n4cnc5c(N)ncnc54)[C@H](OP(=O)(O)O)[C@@H]3O)[C@@H](O)[C@H]2O)C=CC1
kcat: 1033.44 1 μmol/(μmol × min)
--
MOLECULE: NC(=O)C1=CN([C@@H]2O[C@H](COP(=O)(O)OP(=O)(O)OC[C@H]3O[C@@H](n4cnc5c(N)ncnc54)[C@H](O)[C@@H]3O)[C@@H](O)[C@H]2O)C=CC1
kcat: Traces
--
MOLECULE: NC(=O)c1ccc[n+]([C@@H]2O[C@H](COP(=O)([O-])OP(=O)(O)OC[C@H]3O[C@@H](n4cnc5c(N)ncnc54)[C@H](O)[C@@H]3O)[C@@H](O)[C@H]2O)c1
kcat: Traces
--
MOLECULE: C[C@H](CCC(=O)O)[C@H]1CC[C@H]2[C@@H]3C(=O)C[C@@H]4CC(=O)CC[C@]4(C)[C@H]3CC(=O)[C@]12C [DHCA, Dehydrocholic acid]
kcat: 875.35 1 μmol/(μmol × min)
--
MOLECULE: C[C@H](CCC(=O)O)[C@H]1CC[C@H]2[C@@H]3[C@@H](O)C[C@@H]4C[C@H](O)CC[C@]4(C)[C@H]3CC[C@]12C
kcat: 1179.39 1 μmol/(μmol × min)
